Recorded measurements of IC50, one per entry
# target_under_test: human Gal-1 (hGal-1)
# Sequence (P09382 2-135 limits assumed): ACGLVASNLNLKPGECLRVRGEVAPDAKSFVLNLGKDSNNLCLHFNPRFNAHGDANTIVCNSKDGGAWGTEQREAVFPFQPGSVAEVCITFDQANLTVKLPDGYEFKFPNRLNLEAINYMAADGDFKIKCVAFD
# assay_method_text: Competitive binding assay: binding of biotinylated hGal-1 to microplate-adsorbed asialofetuin (ASF)
# experimental_conditions: Activities on hGal-1; mean values of several measurements

{"compound": "O=C1CCC(c2cc(C[C@H]3O[C@H](CO)[C@H](O)[C@H](n4cc(-c5cc(F)c(F)c(F)c5)nn4)[C@H]3O)no2)CC1 [Example 2.12]", "display_unit": "nM", "IC50": 3650}
{"compound": "CO[C@@H]1[C@@H](n2cc(-c3cc(F)c(F)c(F)c3)nn2)[C@@H](O)[C@@H](CO)O[C@@H]1Cc1cc(C(C)(C)C)no1 [Ex 1.206]", "display_unit": "nM", "IC50": 1340}
{"compound": "CO[C@@H]1[C@@H](n2cc(-c3cc(F)c(F)c(F)c3)nn2)[C@@H](O)[C@@H](CO)O[C@@H]1Cc1cn(C2CCN(S(=N)(=O)C(C)(C)C)CC2)nn1 (stereo partly drawn) [Example 4.21]", "display_unit": "nM", "IC50": 86}

* * *

Recorded measurements of pIC50, one per entry
# target_under_test: human Gal-1 (hGal-1)
# assay_method_text: Competitive binding assay: binding of biotinylated hGal-1 to microplate-adsorbed asialofetuin (ASF)
# experimental_conditions: Activities on hGal-1; mean values of several measurements
pIC50: −log10 of the molar value.
observation_type: pIC50

{"compound": "CO[C@@H]1[C@@H](n2cc(-c3ccc(Br)c(F)c3F)nn2)[C@@H](O)[C@@H](CO)O[C@@H]1Cc1cc(C(C)(C)C)on1", "endpoint_result": 5.44}
{"compound": "CC(C)(C)OC(=O)N1CCC(C2=NOC(C[C@H]3O[C@H](CO)[C@H](O)[C@H](n4cc(-c5ccc(C(F)(F)F)c(F)c5)nn4)[C@H]3O)C2)CC1 (stereo partly shown)", "endpoint_result": 5.01}
{"compound": "CCOC(=O)N1CCC(c2cc(C[C@H]3O[C@H](CO)[C@H](O)[C@H](n4cc(-c5ccc(C)c(F)c5F)nn4)[C@H]3OC)no2)CC1", "endpoint_result": 5.99}
{"compound": "CO[C@@H]1[C@@H](n2cc(-c3cc(F)c(F)c(F)c3)nn2)[C@@H](O)[C@@H](CO)O[C@@H]1Cc1cc(C2(O)CCC(F)(F)CC2)on1", "endpoint_result": 5.09}
{"compound": "CO[C@@H]1[C@@H](n2cc(-c3cc(F)c(Cl)c(F)c3)nn2)[C@@H](O)[C@@H](CO)O[C@@H]1CC1CC(C2CCN(C(=O)OC(C)(C)C)CC2)=NO1 (stereo partly shown)", "endpoint_result": 5.81}
{"compound": "COc1cc(OC)c(-c2cn([C@H]3[C@@H](O)[C@@H](CO)O[C@H](CC4CC(C5CCN(C(=O)OC(C)(C)C)CC5)=NO4)[C@@H]3O)nn2)cc1F (stereo partly shown)", "endpoint_result": 4.94}
{"compound": "CO[C@@H]1[C@@H](n2cc(-c3ccc(Cl)c(F)c3F)nn2)[C@@H](O)[C@@H](CO)O[C@@H]1Cc1cc(C(C)(C)C)no1", "endpoint_result": 6.01}
{"compound": "CO[C@@H]1[C@@H](n2cc(-c3cc(F)c(F)c(F)c3)nn2)[C@@H](O)[C@@H](CO)O[C@@H]1Cc1cc(C2CCN(C(=O)N3CCN(C)CC3)CC2)on1", "endpoint_result": 6.09}
{"compound": "CC(C)(C)OC(=O)N1CCC(C2=NOC(C[C@H]3O[C@H](CO)[C@H](O)[C@H](n4cc(-c5cc(F)c(F)c(F)c5)nn4)[C@H]3O)C2)CC1 (stereo partly shown)", "endpoint_result": 5.99}
{"compound": "CO[C@@H]1[C@@H](n2cc(-c3cc(F)c(F)c(F)c3)nn2)[C@@H](O)[C@@H](CO)O[C@@H]1Cc1cc(C2CCN(C(C)=O)C2)on1 (mixture of isomers)", "endpoint_result": 5.08}
{"compound": "CO[C@@H]1[C@@H](n2cc(-c3cc(F)c(F)c(F)c3)nn2)[C@@H](O)[C@@H](CO)O[C@@H]1CC1CN(C2CCN(S(=O)(=O)C(F)(F)F)CC2)C(=O)O1 (mixture of isomers)", "endpoint_result": 5.64}
{"compound": "CO[C@@H]1[C@@H](n2cc(-c3cc(F)c(F)c(F)c3)nn2)[C@@H](O)[C@@H](CO)O[C@@H]1C[C@@H]1CN(C2CCN(S(C)(=O)=O)CC2)C(=O)O1", "endpoint_result": 6.80}
{"compound": "CO[C@@H]1[C@@H](n2cc(-c3ccc(Cl)c(F)c3)nn2)[C@@H](O)[C@@H](CO)O[C@@H]1Cc1cc(C2CCN(C(=O)OC(C)(C)C)CC2)no1", "endpoint_result": 6.10}
{"compound": "CO[C@@H]1[C@@H](n2cc(-c3cc(F)c(F)c(F)c3)nn2)[C@@H](O)[C@@H](CO)O[C@@H]1Cc1cc(C2CCCCC2)no1", "endpoint_result": 4.97}
{"compound": "CO[C@@H]1[C@@H](n2cc(-c3cc(F)c(F)c(F)c3)nn2)[C@@H](O)[C@@H](CO)O[C@@H]1Cc1cc(C2CCN(C(=O)N(C)C)CC2)on1", "endpoint_result": 5.61}
{"compound": "CO[C@@H]1[C@@H](n2cc(-c3cc(F)c(F)c(F)c3)nn2)[C@@H](O)[C@@H](CO)O[C@@H]1Cc1cc(C2(O)COC2)on1", "endpoint_result": 5.17}
{"compound": "CC(C)(C)OC(=O)N1CCC(c2cc(C[C@H]3O[C@H](CO)[C@H](O)[C@H](n4cc(-c5cc(F)c(F)c(F)c5)nn4)[C@H]3O)no2)C1 (stereo partly shown)", "endpoint_result": 4.38}
{"compound": "COc1ccc(N2CC(C[C@H]3O[C@H](CO)[C@H](O)[C@H](n4cc(-c5cc(F)c(F)c(F)c5)nn4)[C@H]3OC)OC2=O)cc1 (mixture of isomers)", "endpoint_result": 5.28}
{"compound": "Cc1ccc(-c2cn([C@H]3[C@@H](O)[C@@H](CO)O[C@H](Cc4cc(C(C)(C)C)no4)[C@@H]3OCc3nccn3C)nn2)c(F)c1F", "endpoint_result": 5.29}
{"compound": "CO[C@@H]1[C@@H](n2cc(-c3cc(F)c(F)c(F)c3)nn2)[C@@H](O)[C@@H](CO)O[C@@H]1Cc1cc(C2(OC)CCCC2)no1", "endpoint_result": 5.44}
{"compound": "CO[C@@H]1[C@@H](n2cc(-c3cc(F)cc(Cl)c3)nn2)[C@@H](O)[C@@H](CO)O[C@@H]1Cc1cc(C2CCOCC2)on1", "endpoint_result": 5.22}
{"compound": "Cc1ccc(-c2cn([C@H]3[C@@H](O)[C@@H](CO)O[C@H](Cc4cc(C(C)(C)C)no4)[C@@H]3OCc3nccs3)nn2)c(F)c1F", "endpoint_result": 5.98}
